System: Staphylococcus aureus (ATCC29213)
Sorting guide: entries reporting MIC beneath 50 µM go in the 1 pile, the rest go in the -1 pile.

Solved cases below.
# COMPOUND, ASSIGNED CATEGORY
records = [
    ("CC1(C)S[C@@H]2[C@H](NC(=O)[C@H](N)c3ccccc3)C(=O)N2[C@H]1C(=O)O [Ampicillin sodium, reference compound]", 1),
    ("CN[C@H](CC(C)C)C(=O)N[C@H]1C(=O)N[C@@H](CC(N)=O)C(=O)N[C@H]2C(=O)N[C@H]3C(=O)N[C@H](C(=O)N[C@H](C(=O)O)c4cc(O)cc(O)c4-c4cc3ccc4O)[C@H](O)c3ccc(c(Cl)c3)Oc3cc2cc(c3O[C@@H]2O[C@H](CO)[C@@H](O)[C@H](O)[C@H]2O[C@H]2C[C@](C)(N)[C@H](O)[C@H](C)O2)Oc2ccc(cc2Cl)[C@H]1O [Vancomycin, reference compound]", 1),
    ("CC(=O)OC1C=CC=C2CC34SSC(CO)(C(=O)N3C21)N(C)C4=O (stereo not drawn)", -1),
    ("CN1C(=O)[C@]23CC4=CC=C[C@H](O)[C@H]4N2C(=O)[C@@]1(CO)SS3", 1),
]

Proceed to the following item.
Query block: Consider `C=c1c(=O)n2c(cc3ccccc32)c(=O)n1C` . Does its MIC lie strictly below 50 µM?
Result block: -1
